This section presents compounds with their documented pEC50 values.
biological target: GPR119 (Homo sapiens); assay: Controlling Effect of GPR119 in CRE-bla CHO-K1 Cells (EC50); settings: GPR119 CRE-bla CHO-K1 cell line, 5 hr incubation with compound, β-lactamase LiveBLAzer-FRET B/G readout; read-out: controlling effect against GPR119 in CRE-bla CHO-K1 cell line (EC50)
Sequence (Q8TDV5 whole entry): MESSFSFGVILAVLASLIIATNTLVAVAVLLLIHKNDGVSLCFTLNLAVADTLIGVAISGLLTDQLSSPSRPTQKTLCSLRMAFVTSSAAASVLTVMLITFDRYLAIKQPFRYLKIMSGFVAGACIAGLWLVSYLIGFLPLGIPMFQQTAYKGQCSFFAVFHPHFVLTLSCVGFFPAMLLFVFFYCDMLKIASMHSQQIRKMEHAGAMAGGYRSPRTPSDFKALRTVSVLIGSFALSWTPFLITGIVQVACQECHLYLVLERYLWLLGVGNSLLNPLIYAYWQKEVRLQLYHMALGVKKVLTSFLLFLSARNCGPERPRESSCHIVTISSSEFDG
pEC50: −log10 of the molar value.

Input CCCc1cnc(N2CCC(Oc3ncnc4c(-c5ccc(S(C)(=O)=O)cc5F)csc34)CC2)nc1 [Example 83] . Output pEC50: > 7.00

Input CC(C)c1noc(C2CCN(c3ncnc4c(-c5ccc(-n6cnnn6)cc5)csc34)CC2)n1 [Example 118] . Output pEC50: 6.00 to 7.00

* * *

molecular target: GPR119 (Homo sapiens); experiment: Controlling Effect of GPR119 in CRE-bla CHO-K1 Cells (EC50); settings: GPR119 CRE-bla CHO-K1 cell line, 5 hr incubation with compound, β-lactamase LiveBLAzer-FRET B/G readout; read-out: controlling effect against GPR119 in CRE-bla CHO-K1 cell line (EC50)
readout.name: EC50

The cases that follow already have their EC50 on record.
1) CCCS(=O)(=O)c1ccc(-c2csc3c(N4CCC(c5nc(C(C)C)no5)CC4)ncnc23)cc1    < 100 nM
2) CC(C)Cc1noc(N2CCC(Oc3ncnc4c(-c5ccc(S(C)(=O)=O)cc5F)csc34)CC2)n1    < 100 nM
3) CCc1cnc(N2CCC(Nc3ncnc4c(-c5ccc(S(C)(=O)=O)cc5)csc34)CC2)nc1    > 1000 nM
4) Cn1cc(-c2ccc(S(C)(=O)=O)cc2)c2ncnc(NC3CCN(C(=O)OC(C)(C)C)CC3)c21    > 1000 nM
5) CC(C)c1noc(C2CCN(c3ncnc4c(-c5ccc(C(=O)O)cc5)csc34)CC2)n1    100 to 1000 nM

Now turn to the next compound.
Record CC(C)c1noc(N2CCC(Oc3ncnc4c(-c5ccc(S(C)(=O)=O)cc5)csc34)CC2)n1 has GPR119 (Homo sapiens) EC50 equal to < 100 nM

* * *

biological target: GPR119 (Homo sapiens); test: Controlling Effect of GPR119 in CRE-bla CHO-K1 Cells (EC50); details: GPR119 CRE-bla CHO-K1 cell line, 5 hr incubation with compound, β-lactamase LiveBLAzer-FRET B/G readout; read-out: controlling effect against GPR119 in CRE-bla CHO-K1 cell line (EC50)
This section presents compounds with their documented EC50 values.

The cases that follow already have their EC50 on record.
1. CS(=O)(=O)c1ccc(-c2csc3c(OC4CCN(c5nc(CC6CC6)no5)CC4)ncnc23)cc1 [Example 52]    < 100 nM
2. CC(C)c1noc(C2CCN(c3ncnc4c(-c5ccc(S(C)(=O)=O)c(F)c5)csc34)CC2)n1 [Example 13]    > 1000 nM
3. Cn1cc(-c2ccc(S(C)(=O)=O)cc2)c2ncnc(OC3CCN(C(=O)OC(C)(C)C)CC3)c21 [Example 25]    < 100 nM

Now turn to the next compound.
Input CC(C)c1noc(C2CCN(c3ncnc4c(-c5ccc(S(C)(=O)=O)cc5)csc34)CC2)n1 [Example 5] . Output EC50: < 100 nM

* * *

target: GPR119 (Homo sapiens); assay: Controlling Effect of GPR119 in CRE-bla CHO-K1 Cells (EC50); settings: GPR119 CRE-bla CHO-K1 cell line, 5 hr incubation with compound, β-lactamase LiveBLAzer-FRET B/G readout; read-out: controlling effect against GPR119 in CRE-bla CHO-K1 cell line (EC50)
This section presents molecules with their documented EC50 values.

The cases that follow already have their EC50 on record.
1. CS(=O)(=O)c1ccc(-c2csc3c(OC4CCN(c5nc(C6CC6)no5)CC4)ncnc23)c(F)c1    < 100 nM
2. CC(C)c1noc(C2CCN(c3ncnc4c(-c5ccc(S(C)(=O)=O)cc5)cn(C)c34)CC2)n1    100 to 1000 nM
3. CC(C)c1noc(N2CCC(Oc3ncnc4c(-c5ccc(N)cc5)cn(C)c34)CC2)n1    > 1000 nM
4. COC(=O)c1ccc(-c2csc3c(N4CCC(c5nc(C(C)C)no5)CC4)ncnc23)cc1    100 to 1000 nM
5. CCCS(=O)(=O)c1ccc(-c2csc3c(N4CCC(c5nc(C(C)C)no5)CC4)ncnc23)c(F)c1    < 100 nM

Now turn to the next molecule.
Input CC(C)c1noc(N2CCC(Oc3ncnc4c(-c5ccc(S(=O)(=O)C6CC6)cc5)csc34)CC2)n1 . Output EC50: < 100 nM
